# systemUnderTest: Calpain-1 catalytic subunit (Homo sapiens, UniProt P07384)
# Sequence (P07384 whole entry): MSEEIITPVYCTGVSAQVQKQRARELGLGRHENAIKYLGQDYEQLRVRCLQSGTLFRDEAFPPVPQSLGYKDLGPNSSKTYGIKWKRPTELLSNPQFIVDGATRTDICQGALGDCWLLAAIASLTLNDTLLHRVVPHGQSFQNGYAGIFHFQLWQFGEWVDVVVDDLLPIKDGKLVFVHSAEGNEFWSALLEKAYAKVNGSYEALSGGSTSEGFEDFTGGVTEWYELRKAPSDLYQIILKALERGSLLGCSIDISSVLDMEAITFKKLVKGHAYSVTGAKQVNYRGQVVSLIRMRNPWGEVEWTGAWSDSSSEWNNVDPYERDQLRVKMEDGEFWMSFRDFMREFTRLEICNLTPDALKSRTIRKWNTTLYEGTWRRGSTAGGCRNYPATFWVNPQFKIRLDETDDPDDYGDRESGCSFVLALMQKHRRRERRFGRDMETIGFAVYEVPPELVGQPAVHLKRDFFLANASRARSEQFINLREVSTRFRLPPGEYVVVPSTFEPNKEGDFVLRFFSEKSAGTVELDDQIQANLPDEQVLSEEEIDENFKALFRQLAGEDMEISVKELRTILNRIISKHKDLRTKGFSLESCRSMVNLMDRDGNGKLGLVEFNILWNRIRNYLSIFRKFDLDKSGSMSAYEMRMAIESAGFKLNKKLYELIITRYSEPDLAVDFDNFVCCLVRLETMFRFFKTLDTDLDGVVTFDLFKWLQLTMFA
# protocolDetails: Inhibition concentration required against calpain-1
pIC50: −log10 of the molar value.
readoutType: pIC50

Given the compound CC(C)[C@H](NC(=O)OCc1ccc(Cl)cc1Cl)C(=O)NC(CC(=O)O)C(=O)CF (stereo partly specified) , write its reported pIC50. ~5.30
